Lab note: IC50 readings collected with Tyro3 (Homo sapiens (Human), UniProt Q06418) for the following compounds.
Sequence (Q06418 41-890): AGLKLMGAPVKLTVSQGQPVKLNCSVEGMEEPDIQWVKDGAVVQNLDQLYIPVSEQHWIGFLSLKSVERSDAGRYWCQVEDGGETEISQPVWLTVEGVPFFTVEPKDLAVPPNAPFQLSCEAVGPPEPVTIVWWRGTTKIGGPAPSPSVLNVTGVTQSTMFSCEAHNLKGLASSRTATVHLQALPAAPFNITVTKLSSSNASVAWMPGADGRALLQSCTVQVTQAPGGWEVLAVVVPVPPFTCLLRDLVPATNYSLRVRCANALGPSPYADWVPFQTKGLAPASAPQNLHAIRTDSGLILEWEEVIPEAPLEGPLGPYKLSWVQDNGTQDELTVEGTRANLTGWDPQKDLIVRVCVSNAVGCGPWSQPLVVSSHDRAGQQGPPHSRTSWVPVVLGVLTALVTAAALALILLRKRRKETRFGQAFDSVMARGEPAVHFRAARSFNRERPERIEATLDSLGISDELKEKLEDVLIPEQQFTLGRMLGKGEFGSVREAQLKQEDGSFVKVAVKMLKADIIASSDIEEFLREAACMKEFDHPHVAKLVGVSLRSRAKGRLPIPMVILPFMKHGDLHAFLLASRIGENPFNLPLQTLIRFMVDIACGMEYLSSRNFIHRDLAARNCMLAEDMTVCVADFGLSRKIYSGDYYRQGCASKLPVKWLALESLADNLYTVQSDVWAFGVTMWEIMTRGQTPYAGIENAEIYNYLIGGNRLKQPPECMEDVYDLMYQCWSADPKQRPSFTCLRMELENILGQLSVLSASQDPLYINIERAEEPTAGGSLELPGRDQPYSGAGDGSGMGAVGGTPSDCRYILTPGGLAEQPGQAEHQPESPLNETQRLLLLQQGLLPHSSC
ENDPOINT: IC50

In [3]: df
Out[3]:
                                   compound                                    target  observed_measurement
0  N#C[C@H]1CC[C@@H](c2cc(-c3ccc(NC(=O)c4cccn(-c5ccccc5)c4=O)cc3F)c3c(N)ncnn32)CC1 [Example 30]  Tyro3 (Homo sapiens (Human), UniProt Q06418)          10 to 100 nM
1  CCn1cc(C(=O)Nc2ccc(-c3cc(C4CCN(C(=O)C(C)C)CC4)n4ncnc(N)c34)cc2)c(=O)n(-c2cccc(F)c2)c1=O [Example 73]  Tyro3 (Homo sapiens (Human), UniProt Q06418)              > 100 nM
2  CS(=O)(=O)N1CCC(c2cc(-c3ccc(NC(=O)c4cccn(-c5ccc(F)cc5)c4=O)cc3F)c3c(N)ncnn23)CC1 [Example 43]  Tyro3 (Homo sapiens (Human), UniProt Q06418)          10 to 100 nM
3  CC(C)C(=O)N1CCC(c2cc(-c3ccc(NC(=O)c4cn(C(C)C)c(=O)n(-c5cccc(C#N)c5)c4=O)cc3)c3c(N)ncnn23)CC1 [Example 91]  Tyro3 (Homo sapiens (Human), UniProt Q06418)              > 100 nM
4  CCN(C)C(=O)N1CCC(c2cc(-c3ccc(NC(=O)c4cn(C(C)C)c(=O)n(-c5ccccc5)c4=O)cc3)c3c(N)ncnn23)CC1 [Example 62]  Tyro3 (Homo sapiens (Human), UniProt Q06418)          10 to 100 nM
5  CC(=O)N1CCC(c2cc(-c3ccc(NC(=O)c4cccn(-c5ccc(F)cc5)c4=O)cc3F)c3c(N)ncnn23)CC1 [Example 27]  Tyro3 (Homo sapiens (Human), UniProt Q06418)          10 to 100 nM

###

Lab note: pIC50 readings collected with UniProt Q06418 for the following molecules.
pIC50: −log10 of the molar value.
ENDPOINT: pIC50

In [3]: df
Out[3]:
                     structure_smiles_string          target  observed_measurement
 0  CC(C)C(=O)N1CCC(c2cc(-c3ccc(NC(=O)c4cn(C(C)C)c(=O)n(-c5ccccn5)c4=O)cc3)c3c(N)ncnn23)CC1  UniProt Q06418          7.00 to 8.00
 1  Cc1c(-c2cscn2)cc(C(=O)Nc2ccc(-c3cc(C4CCN(C(=O)C(C)C)CC4)n4ncnc(N)c34)cc2)c(=O)n1-c1cncc(F)c1  UniProt Q06418          7.00 to 8.00
 2  Cc1ncccc1-c1c(C)n(C2CC2)cc(C(=O)Nc2ccc(-c3cc(C4CCN(C(=O)C(C)C)CC4)n4ncnc(N)c34)cc2)c1=O  UniProt Q06418                < 7.00
 3  CC(C)C(=O)N1CCC(c2cc(-c3ccc(NC(=O)c4cn(C(C)C)c(=O)n(C5CCCCC5)c4=O)cc3)c3c(N)ncnn23)CC1  UniProt Q06418                < 7.00
 4  COc1ccn(-c2ccccc2)c(=O)c1C(=O)Nc1ccc(-c2c(Br)c(C3CCN(C(=O)C(C)C)CC3)n3ncnc(N)c23)cc1  UniProt Q06418                < 7.00
 5  Cc1cc(C(=O)Nc2ccc(-c3cc(C4CCN(C(=O)C(C)C)CC4)n4ncnc(N)c34)cc2)c(=O)n(-c2ccccc2)c1-c1cccnc1  UniProt Q06418                < 7.00
 6  COCCN1CCC(c2cc(-c3ccc(NC(=O)c4cccn(-c5ccccc5)c4=O)cc3F)c3c(N)ncnn23)CC1  UniProt Q06418          7.00 to 8.00
 7  CC(C)n1cc(C(=O)Nc2ccc(-c3cc(C4CCN(C)CC4)n4ncnc(N)c34)cc2)c(=O)n(-c2ccccc2)c1=O  UniProt Q06418          7.00 to 8.00
 8  CC(C)n1cc(C(=O)Nc2ccc(-c3cc(C4CCN(C(=O)N(C)C)CC4)n4ncnc(N)c34)cc2)c(=O)n(-c2ccccc2)c1=O  UniProt Q06418          7.00 to 8.00
 9  Cc1c(Br)cc(C(=O)Nc2ccc(-c3cc(C4CCN(C(=O)C(C)C)CC4)n4ncnc(N)c34)cc2)c(=O)n1-c1cccnc1  UniProt Q06418                < 7.00
10  CC(C)C(=O)N1CCC(c2cc(-c3ccc(NC(=O)c4cn(C(C)C)cc(-c5cccnc5)c4=O)cc3)c3c(N)ncnn23)CC1  UniProt Q06418                < 7.00
11  CCc1cc(-c2ccc(NC(=O)c3cccn(-c4ccccc4)c3=O)cc2F)c2c(N)ncnn12  UniProt Q06418                < 7.00
12  Cc1c(Cl)cc(C(=O)Nc2ccc(-c3cc(C4CCN(C(=O)C(C)C)CC4)n4ncnc(N)c34)cc2)c(=O)n1-c1cccnc1  UniProt Q06418                < 7.00
